The following compounds are shown together with reported MIC P. aeruginosa ATCC 27883 values.
tested on: Pseudomonas aeruginosa (ATCC 27883); conditions: ATCC 27883
Non-standard residues stand in square brackets, D forms with d. Residues, ends and D or L forms follow the SMILES beside them. Dip = N[C@H](C(=O)O)C(c1ccccc1)c1ccccc1; 2Nal = N[C@@H](Cc1ccc2ccccc2c1)C(=O)O; d2Nal = N[C@H](Cc1ccc2ccccc2c1)C(=O)O
Please give a number only; it is taken to be in µg/mL.

Solved cases (5 shown):
Consider NCCCC[C@H]1NC(=O)[C@@H](CCCCN)NC(=O)[C@@H](CCCCN)NC(=O)[C@@H](Cc2ccc3ccccc3c2)NC(=O)[C@@H](Cc2ccc3ccccc3c2)NC(=O)[C@@H](Cc2c[nH]c3ccccc23)NC(=O)[C@@H](CCCCN)NC(=O)[C@@H](CCCCN)NC1=O [IFX-133, c[lys-lys-lys-lys-lys-trp-naI-naI]] (cyclo([d2Nal][d2Nal][dK][dK][dK][dK][dK][dW])) . Its measured MIC P. aeruginosa ATCC 27883 is 128

Documented MIC P. aeruginosa ATCC 27883 of NCCCC[C@@H]1NC(=O)[C@@H](CCCCN)NC(=O)[C@H](CCCCN)NC(=O)[C@@H](CCCCN)NC(=O)[C@@H](Cc2ccc3ccccc3c2)NC(=O)[C@@H](Cc2ccc3ccccc3c2)NC(=O)[C@H](Cc2c[nH]c3ccccc23)NC1=O [IFX-128, c[lys-Lys-lys-Lys-Trp-naI-naI]] (cyclo(KW[d2Nal][d2Nal][dK]K[dK])) : 64

response.value for N=C(N)NCCC[C@@H]1NC(=O)[C@H](CCCNC(=N)N)NC(=O)[C@H](Cc2ccc3ccccc3c2)NC(=O)[C@H](Cc2ccc3ccccc3c2)NC(=O)[C@H](Cc2ccc3ccccc3c2)NC(=O)[C@H](CCCNC(=N)N)NC1=O [IFX-003, c[Arg-Arg-Arg-NaI-NaI-NaI]] (cyclo([2Nal][2Nal][2Nal]RRR)) (field: MIC P. aeruginosa ATCC 27883) = 50

Reported MIC P. aeruginosa ATCC 27883 ( NCCCC[C@@H]1NC(=O)[C@H](CCCCN)NC(=O)[C@H](CCCCN)NC(=O)[C@H](Cc2ccc3ccccc3c2)NC(=O)[C@H](Cc2ccc3ccccc3c2)NC(=O)[C@H](Cc2c[nH]c3ccccc23)NC(=O)[C@H](CCCCN)NC(=O)[C@H](CCCCN)NC1=O [IFX-131, c[Lys-Lys-Lys-Lys-Lys-Trp-NaI-NaI]] (cyclo([2Nal][2Nal]KKKKKW)) ) = 64

Reported MIC P. aeruginosa ATCC 27883 ( N=C(N)NCCC[C@H](NC(=O)[C@H](CCCNC(=N)N)NC(=O)[C@@H](N)CCCNC(=N)N)C(=O)N[C@@H](CCCNC(=N)N)C(=O)N[C@H](C(=O)N[C@H](C(=O)O)C(c1ccccc1)c1ccccc1)C(c1ccccc1)c1ccccc1 [IFX-010-1, NH2-Arg-Arg-Arg-Arg-Dip-Dip-OH] (H-RRRR[Dip][Dip]-OH) ) = 50

Continue with the compound presented below.
// N=C(N)NCCC[C@@H]1NC(=O)[C@H](Cc2ccc3ccccc3c2)NC(=O)[C@H](Cc2ccc3ccccc3c2)NC(=O)[C@H](Cc2ccc3ccccc3c2)NC(=O)[C@H](CCCNC(=N)N)NC(=O)[C@@H](CCCNC(=N)N)NC(=O)[C@H](CCCNC(=N)N)NC1=O [IFX-078, c[Arg-Arg-arg-Arg-NaI-NaI-NaI]] (cyclo(RR[dR]R[2Nal][2Nal][2Nal])) : MIC P. aeruginosa ATCC 27883 value = 12.5

# credit: patent US20220289794A1
